Reference source for all entries: patent US20170291939A1

Molecular target: T1, human IL-17A (construct not specified) (human, UniProt Q16552 24-155, limits assumed)
T1 construct: also called huIL-17A
T1 sequence: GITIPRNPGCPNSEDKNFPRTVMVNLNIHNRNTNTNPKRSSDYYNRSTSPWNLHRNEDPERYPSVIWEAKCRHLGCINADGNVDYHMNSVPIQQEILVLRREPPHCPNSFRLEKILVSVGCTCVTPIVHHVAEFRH
Experiment: ELISA, coated huIL-17A, long wash
Reported values of Off-rate ELISA (normalized to XAB1 Fab) for individual entries
PROPERTY_LABEL: Off-rate ELISA (normalized to XAB1 Fab) (fold)

1. MB463 (Fab, V domains shown, Fab variant of XAB1) VH: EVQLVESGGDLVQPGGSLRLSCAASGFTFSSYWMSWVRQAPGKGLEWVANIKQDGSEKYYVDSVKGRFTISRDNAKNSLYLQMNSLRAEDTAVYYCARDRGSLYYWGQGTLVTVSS VL: AIQLTQSPSSLSASVGDRVTITCRPSQGIYFELAWYQQKPGKAPKLLIYDASSLENGVPSRFSGSGSGTDFTLTISSLQPEDFATYYCQQFNSYPLTFGGGTKVEIK; 34.2
2. MB464 (Fab, V domains shown, Fab variant of XAB1) VH: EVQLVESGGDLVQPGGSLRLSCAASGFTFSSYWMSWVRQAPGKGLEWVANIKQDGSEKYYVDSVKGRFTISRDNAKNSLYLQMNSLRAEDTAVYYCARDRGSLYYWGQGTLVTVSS VL: AIQLTQSPSSLSASVGDRVTITCRPSQGIIYQLAWYQQKPGKAPKLLIYDASSLENGVPSRFSGSGSGTDFTLTISSLQPEDFATYYCQQFNSYPLTFGGGTKVEIK; 34.9
